# System: RARg homodimer (NR concentration 270 nM)
# PROTOCOL NOTES: PBM binding z-score (relative to random genomic background probes); higher = stronger binding; sequences stand for … in GC…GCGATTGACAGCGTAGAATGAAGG
# PBM binding z-score >= 1 gives label 1, anything below gives label 0

> print(dat)
                  biopolymer.sequence  answer.label
1  ATCTCTAGGTAACCAAGTGCAGTGAATGCCGAAC       label 0
2  CCTTGCGGGTCACGAGGTTATAGCACGACGAGCG       label 1
3  GCAGACAGGTGAAATGCAGGTAACTCAGGGTGGC       label 0

*Q* I'd appreciate it if you could say whether CGAACGAGTGCATGAGTTGATAGCAAATGCCGAT has PBM binding z-score at least equal to 1.
*A* label 0

*Q* One more sequence: GATACAGGGTCAAGCCCAGAGTACGCGTATTGAT
*A* label 1

*Q* One more sequence: AGTCAAAATTCAGGACGAGGTAACGTAAAGCACG
*A* label 0

*Q* One more sequence: GCGACTGGGGCATCATCAGGTTACCATAACTTAA
*A* label 0

*Q* One more sequence: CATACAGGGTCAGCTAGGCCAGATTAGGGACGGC
*A* label 1

*Q* One more sequence: TCTAGTTGGTGAAAGGTCACACACTCGAAATGCG
*A* label 1

*Q* One more sequence: CCTAGCAGGCCAGGGTCGCTCAAGCATTTCGCTT
*A* label 0

*Q* One more sequence: GCTGCTAGGTCAGGTTGGTCAGGTAACGGGTACG
*A* label 1

*Q* One more sequence: AGTCAAAGTTCACTGGGTAACGTAAGATTCAGCT
*A* label 1

*Q* One more sequence: AGAAGGAGGTTATTAAGATCAGGGAATTGCGGTC
*A* label 0

*Q* One more sequence: CCGAGTAGGATATGGGGCATTCAGGCAACGGTGA
*A* label 0

*Q* One more sequence: AATACAGGGTCACTAGGCCAGAGCAGGTACGAAT
*A* label 1

*Q* One more sequence: CCTATTAGTTGACCTTAAGGGCAACCGAAGCTCG
*A* label 1

*Q* One more sequence: GCTATTTGTTGAAAGGGCAACCGAATGATTCTCG
*A* label 1

*Q* One more sequence: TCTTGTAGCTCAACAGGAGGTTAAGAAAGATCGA
*A* label 0

*Q* One more sequence: CCTATTAATTGACCATAAGGGCAACCGAAGCTCG
*A* label 1

*Q* One more sequence: ACTTACGGGTCAACGTGGTTATAGCACGCGTATA
*A* label 1

*Q* One more sequence: CCGACTGGGGCAAGGCTACCATAACGCACAGCCA
*A* label 0

*Q* One more sequence: CCGACTGGGGCGTAAGGTTACCATAAGCCAGCCC
*A* label 0
